Let's look at some molecules and their measured MIC of the compounds.
# Tested on: Strept. sanguis L1721
# protocol.description: MIC by microbroth dilution
# Assay type: cell-based, Streptococcus sanguis
# reported.conditions: 0,01% BSA, 10^4 CFU/ml, 18-24 h, Todd Hewitt broth
Write down the numeric answer in µg/mL and omit the unit.

Some molecules with known MIC of the compounds results, for comparison:
molecule	MIC of the compounds / µg/mL
CNC(=O)CC1NC(=O)c2csc(n2)-c2ccc(-c3nc(C4=NC(C(=O)N5CCCC5CN(C)CCN(C)C)CO4)cs3)nc2-c2csc(n2)-c2csc(n2)C(C(O)c2ccccc2)NC(=O)CNC(=O)c2nc(sc2COC)C(C(C)C)NC(=O)c2nc1sc2C (mixture of isomers) [Compound 21]	0.25
CCN(CCN(C)C)C(=O)C1COC(c2csc(-c3ccc4c(n3)-c3csc(n3)-c3csc(n3)C(C(O)c3ccccc3)NC(=O)CNC(=O)c3nc(sc3COC)C(C(C)C)NC(=O)c3nc(sc3C)C(CC(=O)NC)NC(=O)c3csc-4n3)n2)=N1 (mixture of isomers) [Compound 8]	1

Measured MIC of the compounds, CCN(CC)CCNC(=O)C1COC(c2csc(-c3ccc4c(n3)-c3csc(n3)-c3csc(n3)C(C(O)c3ccccc3)NC(=O)CNC(=O)c3nc(sc3COC)C(C(C)C)NC(=O)c3nc(sc3C)C(CC(=O)NC)NC(=O)c3csc-4n3)n2)=N1 (mixture of isomers) [Compound 3] : 0.5
